Values compiled from ChEMBL document CHEMBL4004873.

Quick reference: Ki of the listed items.
Target: UniProt O75530
Sequence (O75530 whole entry): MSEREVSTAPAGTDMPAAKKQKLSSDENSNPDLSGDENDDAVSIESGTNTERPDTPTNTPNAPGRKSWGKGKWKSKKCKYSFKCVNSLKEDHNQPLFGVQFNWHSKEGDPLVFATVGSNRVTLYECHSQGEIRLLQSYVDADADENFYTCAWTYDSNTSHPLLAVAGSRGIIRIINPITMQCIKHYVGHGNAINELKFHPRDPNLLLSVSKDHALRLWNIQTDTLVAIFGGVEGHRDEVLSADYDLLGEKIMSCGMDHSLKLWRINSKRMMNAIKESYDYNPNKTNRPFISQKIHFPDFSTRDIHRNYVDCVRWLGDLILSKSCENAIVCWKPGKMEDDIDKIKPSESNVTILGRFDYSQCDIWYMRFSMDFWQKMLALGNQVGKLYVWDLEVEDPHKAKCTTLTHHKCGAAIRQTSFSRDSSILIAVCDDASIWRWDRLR
A complete answer gives the number and then names the unit.

Below: 3 compounds and their reported Ki.
CN(C)C(=O)c1cccc2c([C@H]3CN(Cc4c(F)cccc4Br)C[C@@H]3N(C)C)cn(C)c12 = 23 nM
CN(C)[C@H]1CN(Cc2ccccc2F)C[C@@H]1c1cn(C)c2ccccc12 (racemic) = 330 nM
CN(C)[C@H]1CN([C@H]2CCc3cccc(F)c32)C[C@@H]1c1cn(C)c2ccccc12 = 11 nM

GET /value?item= CN(C)[C@H]1CN([C@@H]2CCc3cccc(F)c32)C[C@@H]1c1cn(C)c2ccccc12 &field=Ki returns 129 nM
